The values you see were collected from paper PMC9065685.

Tested on: Aspergillus niger
assayProtocol: Mycelial growth inhibition
Type: cell-based
condition: 5 days incubation, mean ± SD, triplicate, NI = No inhibition
recordedEndpoint: % inhibition of fungal mycelial growth in mm (20 μg/μL), Aspergillus niger

(Q) Return the recorded % inhibition of fungal mycelial growth in mm (20 μg/μL), Aspergillus niger value; entry: "CCCCCCCCCCCCCCCC(=O)O[C@H]1C[C@H](n2cc(C)c(=O)[nH]c2=O)O[C@@H]1COC(=O)CCCCCCCCCCC"
(A) 57.62 ± 1.1%

----------
Tested on: Escherichia coli
assayProtocol: Disc diffusion antibacterial susceptibility test
Format: cell-based
condition: mean ± SD, triplicate, NI = No inhibition
recordedEndpoint: Diameter of inhibition zone, E. coli (-ve)

(Q) Return the recorded Diameter of inhibition zone, E. coli (-ve) value; entry: CCCCCCCCCCCCCCCC(=O)O[C@H]1C[C@H](n2cc(C)c(=O)[nH]c2=O)O[C@@H]1COC(=O)CCCCCCCCCCC [analog 5, 5′-O-Lauroyl-3′-O-(palmitoyl)thymidine]
(A) 9.00 ± 0.2 mm

----------
System: Salmonella typhi
assayProtocol: Disc diffusion antibacterial susceptibility test
Type: cell-based
condition: mean ± SD, triplicate, NI = No inhibition
recordedEndpoint: Diameter of inhibition zone, S. typhi (-ve)

(Q) Return the recorded Diameter of inhibition zone, S. typhi (-ve) value; entry: "CCCCCCCCCCCC(=O)OC[C@H]1O[C@@H](n2cc(C)c(=O)[nH]c2=O)C[C@@H]1OC(=O)c1ccc(Br)cc1"
(A) 9.5 ± 0.1 mm

(Q) Return the recorded Diameter of inhibition zone, S. typhi (-ve) value; entry: "CCCCCCCCCCCC(=O)OC[C@H]1O[C@@H](n2cc(C)c(=O)[nH]c2=O)C[C@@H]1OC(=O)c1ccc(C(C)(C)C)cc1"
(A) 9.75 ± 0.2 mm
